assayTarget: hSERT (Homo sapiens, UniProt P31645)
Construct: membranes
Sequence (P31645 whole entry): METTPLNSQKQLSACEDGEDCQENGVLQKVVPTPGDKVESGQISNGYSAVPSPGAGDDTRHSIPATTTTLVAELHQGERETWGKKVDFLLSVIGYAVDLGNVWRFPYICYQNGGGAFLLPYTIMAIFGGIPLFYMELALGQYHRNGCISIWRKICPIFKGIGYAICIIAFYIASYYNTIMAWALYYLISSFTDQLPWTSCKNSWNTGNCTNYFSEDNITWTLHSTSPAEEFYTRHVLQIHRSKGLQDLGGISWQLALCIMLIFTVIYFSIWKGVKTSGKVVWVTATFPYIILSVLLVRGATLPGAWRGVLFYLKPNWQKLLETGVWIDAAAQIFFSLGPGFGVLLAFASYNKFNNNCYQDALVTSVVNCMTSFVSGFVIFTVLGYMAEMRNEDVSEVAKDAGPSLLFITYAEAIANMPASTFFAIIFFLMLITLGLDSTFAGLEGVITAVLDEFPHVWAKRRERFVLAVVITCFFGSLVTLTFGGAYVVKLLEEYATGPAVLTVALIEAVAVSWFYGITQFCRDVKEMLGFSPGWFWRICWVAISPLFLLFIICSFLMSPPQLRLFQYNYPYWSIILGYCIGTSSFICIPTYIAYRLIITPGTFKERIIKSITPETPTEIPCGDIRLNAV
procedureDetails: [3H]-(S)-citalopram dissociation from SERT (allosteric site binding)
conditionInfo: hSERT membranes, [3H]-(S)-citalopram 40 nM, room temperature, N=2; read-out: IC50 of binding to an allosteric site (from k/k0 of 3H-(S)-citalopram dissociation)
valueKind: IC50 (µM)
The reply should contain only the number, in µM.

GET /value?item= "CNCc1ccccc1Sc1c[nH]c2cc(F)ccc12" &field=IC50 returns 26
